- assay name: gradient 5% acetonitrile 3 min, to 50% in 2 min, to 85% in 15 min, held 3 min, 100 µL/min
- measurement conditions: column: Zorbax Extend-C18 2.1 x 50 mm; eluents: water / acetonitrile, 0.1% formic acid
recorded metric: RP-LC retention time (s)

P. Cn1cnc2c(C(=O)NCC3CCCO3)nn(-c3ccccc3)c2c1=O (stereo not given)
Q. Cc1ccc(-c2cc3c(=O)n(Cc4nc(-c5ccc(F)cc5)no4)ncn3n2)c(C)c1
Problem: Select one. Lower RP-LC retention time: P or Q Response format: the label of the selected entry.
Solution: P

* * *

- assay name: gradient 5% acetonitrile 3 min, to 50% in 2 min, to 85% in 15 min, held 3 min, 100 µL/min
- measurement conditions: column: Zorbax Extend-C18 2.1 x 50 mm; eluents: water / acetonitrile, 0.1% formic acid
recorded metric: RP-LC retention time (s)

A selection of reference data follows.
INSERT INTO results (molecule, recorded_number) VALUES
  ('Cc1nc(C)c(C(=O)N/N=C/c2ccc(N(CCCl)CCCl)cc2)s1', 942),
  ('Nc1cc(C2CCN(S(=O)(=O)c3cccc(F)c3)CC2)no1', 755),
  ('O=C(Nc1ccc(Cl)cc1)N1CCc2[nH]cnc2C1c1ccncc1 (centres undefined)', 565);

A. CCOC(=O)C1CCCN(Cc2nc3nc(C)cc(N4CCCCCC4)n3n2)C1 (centres undefined)
B. COc1cccc(CNc2ncccc2-c2nnc(-c3ccccc3)o2)c1
Problem: Select one. Lower RP-LC retention time: A or B Response format: the label of the selected entry.
Solution: A
(A: 620 s, B: 1170 s)

The measurements presented in this section are drawn from the METLIN SMRT retention time set (Domingo-Almenara et al. 2019).
